Values were extracted from patent US9334264B2.

- SYSTEM NAME: NAMPT (human, recombinant, C-terminally His-tagged) (Homo sapiens)
- METHOD SUMMARY: Time-Resolved Fluorescence Resonance Energy Transfer (TR-FRET) Binding Assay of NAMPT
- TEST PARAMETERS: absence of substrates; 6.8 nM NAMPT, 200 nM probe, equilibrated 3 hours
- Description: Determination of the utility of compounds having Formula (I) as binders to and inhibitors of NAMPT was performed using Time-Resolved Fluorescence Resonance Energy Transfer (TR-FRET) binding assays. Time-Resolved Fluorescence Resonance Energy Transfer (TR-FRET) Binding Assay of NAMPT […]
Entries and their measured pIC50 follow.
Would you please state pIC50, meaning minus log10 of the concentration in mol/L, as a bare number?

CC(C)CC(=O)N(Cc1ccc(C#N)cc1)c1ncc(C(=O)NCCCn2ccnc2)s1: 5.93

Next compound, please.
Which pIC50 reading was recorded for the compound C=C[C@@H](CO)NC(=O)N(Cc1ccc(C#N)cc1)c1ncc(C(=O)NCCCn2ccnc2)s1 ?
5.32

----------
- SYSTEM NAME: NAMPT (human, recombinant, C-terminally His-tagged) (Homo sapiens, UniProt P43490)
- Sequence (P43490 whole entry): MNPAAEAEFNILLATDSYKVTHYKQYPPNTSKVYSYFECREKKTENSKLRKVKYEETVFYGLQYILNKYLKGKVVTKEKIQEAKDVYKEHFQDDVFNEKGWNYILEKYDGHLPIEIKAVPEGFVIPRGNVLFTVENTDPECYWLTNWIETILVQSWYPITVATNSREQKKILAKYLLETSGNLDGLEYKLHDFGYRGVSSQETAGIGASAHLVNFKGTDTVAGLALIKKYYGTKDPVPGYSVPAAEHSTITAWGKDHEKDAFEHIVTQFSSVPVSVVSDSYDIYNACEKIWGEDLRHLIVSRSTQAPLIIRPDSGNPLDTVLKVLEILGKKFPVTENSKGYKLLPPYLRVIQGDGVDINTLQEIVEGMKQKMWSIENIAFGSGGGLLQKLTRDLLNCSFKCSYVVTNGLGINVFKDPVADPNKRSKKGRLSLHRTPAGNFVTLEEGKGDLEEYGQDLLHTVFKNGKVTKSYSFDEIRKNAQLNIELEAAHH
- METHOD SUMMARY: Time-Resolved Fluorescence Resonance Energy Transfer (TR-FRET) Binding Assay of NAMPT
- TEST PARAMETERS: absence of substrates; 6.8 nM NAMPT, 200 nM probe, equilibrated 3 hours
Field 'label' (enum: Fulfilled / Not fulfilled). Set to Fulfilled when IC50 is strictly under 800 nM; else Not fulfilled.

Completed entries (count: 5):
COCCC(=O)N(CCOC(C)C)c1ncc(C(=O)NCCCn2ccnc2)s1 [Example 179]: Not fulfilled
CC(C)CCN(Cc1cccc(Cl)c1)c1ncc(C(=O)NCCCn2ccnc2)s1 [Example 58]: Not fulfilled
COCCN(C(=O)Cc1ccc(Oc2ccccc2)cc1)c1ncc(C(=O)NCCCn2ccnc2)s1 [Example 186]: Not fulfilled
CCC(CNC(=O)N(Cc1ccc(F)cc1)c1ncc(C(=O)NCCCn2ccnc2)s1)OC (centres unmarked) [Example 90]: Not fulfilled
COCCNC(=O)N(Cc1ccc(F)cc1)c1ncc(C(=O)NCCCn2ccnc2)s1 [Example 82]: Not fulfilled

Find out if reported IC50 for COCCC(=O)N(Cc1ccnc(OC)c1)c1ncc(C(=O)NCCCn2ccnc2)s1 [Example 94] is less than 800 nM
Not fulfilled

Find out if reported IC50 for O=C(NCCCn1ccnc1)c1cnc(N(Cc2ccc(F)cc2)C(=O)NC2CCCOC2)s1 (centres unmarked) [Example 92] is less than 800 nM
Not fulfilled

Find out if reported IC50 for CC(C)CCN(C(=O)CC1CCOC1)c1ncc(C(=O)NCCCn2ccnc2)s1 (centres unmarked) [Example 174] is less than 800 nM
Fulfilled

Find out if reported IC50 for Cc1cc(C(=O)N(CCC(C)C)c2ncc(C(=O)NCCCn3ccnc3)s2)no1 [Example 135] is less than 800 nM
Fulfilled

Find out if reported IC50 for N#Cc1ccc(C(=O)N(Cc2ccc(F)cc2)c2ncc(C(=O)NCCCn3ccnc3)s2)cc1 [Example 11] is less than 800 nM
Fulfilled

Find out if reported IC50 for COCCC(=O)N(CCCN1CCCC1)c1ncc(C(=O)NCCCn2ccnc2)s1 [Example 192] is less than 800 nM
Not fulfilled

Find out if reported IC50 for COCCC(=O)N(CC1CCC(=O)N1)c1ncc(C(=O)NCCCn2ccnc2)s1 (centres unmarked) [Example 194] is less than 800 nM
Not fulfilled

Find out if reported IC50 for COCCC(=O)N(CC(=O)N1CCCCC1)c1ncc(C(=O)NCCCn2ccnc2)s1 [Example 196] is less than 800 nM
Not fulfilled

Find out if reported IC50 for CC(C)CCN(C(=O)Cc1ccc(F)cc1)c1ncc(C(=O)NCCCn2ccnc2)s1 [Example 139] is less than 800 nM
Fulfilled

Find out if reported IC50 for O=C(NCCCn1ccnc1)c1cnc(N(Cc2ccc(F)cc2)C(=O)CN2CC=CCC2)s1 [Example 27] is less than 800 nM
Not fulfilled

Find out if reported IC50 for CC(C)CCN(C(=O)C(C)c1ccccc1)c1ncc(C(=O)NCCCn2ccnc2)s1 (centres unmarked) [Example 138] is less than 800 nM
Fulfilled
